# ASSAY REMARKS: differential killing of epithelial or mesenchymal cells, primary screen, imaging, PC-3E GFP, TEM4-18 mCherry, co-culture (AID 1345086);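 also: cells exposed to compound for 72 h before imaging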
# PROTOCOL CONDITIONS: imaging cell counts, measured here: mesenchymal TEM4-18 mCherry cell survival, at 1 µM
Peptide text beside a SMILES is read from it.
Provide the recorded normalised cell number for the entries that follow.
One number for each entry.

As a guide, the following entries are already answered.
O=c1c(O)c(-c2ccc(O)cc2O)oc2cc(O)cc(O)c12 : 0.98
CC(C)C[C@H](N)C(=O)N[C@@H](C)C(=O)O (H-Leu-Ala-OH) : 0.93

// each molecule listed below needs its normalised cell number
1. CCOc1ccc(NC(=O)CC(C)O)cc1 (stereo unspecified)
2. CC1=C(/C=C/C(C)=C/C=C/C(C)=C/C=C/C=C(C)/C=C/C=C(C)/C=C/C2=C(C)CCCC2(C)C)C(C)(C)CCC1
3. COc1ccc(O)cc1
4. NC(=O)CCCCC1CCSS1 (stereo unspecified)
5. COc1ccc(Cc2cnc(N)nc2N)cc1OC
6. O=C(O)c1cc(=O)c2cccc(O)c2[nH]1
7. CC(CCC(=O)O)[C@H]1CCC2C3CC[C@@H]4CC(=O)CC[C@]4(C)C3C=C[C@@]21C (stereo partly specified)
8. NC(C(=O)O)C(O)C(=O)O (stereo unspecified)

RESULT:
1: 0.96; 2: 0.98; 3: 1.18; 4: 0.82; 5: 1.23; 6: 1.13; 7: 0.9; 8: 1.06

QUERY: # normalised cell number lookup, item C=CCCCCCCCCCCCC(O)CC(O)CO (stereo unspecified) (tested in a mixture with another compound)
RESULT: 1.14

* * *

Provide the recorded z-score for the entries that follow.
# ASSAY REMARKS: survival rescue of mitochondrial mutant cells in low glucose, primary screen, MELAS cybrids, Rieske KO mouse fibroblasts, CellTiter-Glo (AID 1508586);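 also: z relative to plate mean and SD of compound and empty wells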
# PROTOCOL CONDITIONS: MELAS cybrid survival, CellTiter-Glo 48 h, stronger effect = higher value
One number for each entry.

CN(c1nccc(=O)[nH]1)C1CCN(c2nc3ccccc3n2Cc2ccc(F)cc2)CC1 : 0.306
CC(C)[N+]1(C)C2CCC1CC(OC(=O)C(CO)c1ccccc1)C2 (stereo unspecified) : 0.162
Cc1c(N)c(=O)n(-c2ccccc2)n1C : -0.073
CC(C)NC[C@@H](O)COc1ccc(CC(N)=O)cc1 : 0.458
CCN1C(=O)NC(c2ccccc2)C1=O (stereo unspecified) : 0.723
C[N+]1(C)CCC(OC(=O)C(O)(c2ccccc2)C2CCCC2)C1 (stereo unspecified) : 0.599
C#CC1(O)CC[C@H]2[C@@H]3CCC4=CCCC[C@@H]4[C@H]3CC[C@@]21C (stereo partly specified) : 0.595
CCN[C@H]1CN(CCCOC)S(=O)(=O)c2sc(S(N)(=O)=O)cc21 : 0.333
Nc1ccc2cc3ccc(N)cc3nc2c1 : 2.13
C=C[C@H]1CN2CC[C@H]1C[C@@H]2[C@@H](O)c1ccnc2ccc(OC)cc12 : 0.598

QUERY: # z-score lookup, item "Cc1nc2c([nH]1)c(=O)n(C)c(=O)n2Cc1ccco1"
RESULT: 0.342

* * *

# ASSAY REMARKS: differential killing of epithelial or mesenchymal cells, primary screen, imaging, PC-3E GFP, TEM4-18 mCherry, co-culture (AID 1345086);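 also: cells exposed to compound for 72 h before imaging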
# PROTOCOL CONDITIONS: imaging cell counts, measured here: epithelial PC-3E GFP cell survival, at 1 µM
MEASURED PARAMETER: normalised cell number
Answers are plain numbers.

As a guide, the following entries are already answered.
O=c1ccc2cc(O)c(O)cc2o1 : 0.88
CNC1CCCN(c2c(F)cc3c(=O)c(C(=O)O)cn(C4CC4)c3c2OC)C1 (stereo unspecified) : 1.05
NS(=O)(=O)c1ccc(C(=O)O)cc1 : 1.25
COc1cc(O)cc(OC)c1OC : 1.01
OC[C@@H](O)[C@@H](O[C@@H]1O[C@H](CO)[C@@H](O)[C@H](O)[C@H]1O)[C@H](O)[C@@H](O)CO : 1.03

// each compound listed below needs its normalised cell number
1. Cc1cccc(C)c1NC(=O)C1CCCCN1C (stereo unspecified)
2. CC1(O)CCC(C(C)(C)O)CC1 (stereo unspecified)
3. O=c1[nH]c(=O)c2ccccc2o1
4. CCOC(=O)c1ccc(O)cc1
5. CCOC(=O)CCC(=O)O[C@H]1[C@H](O[C@@H]2[C@@H](C)[C@H](O[C@H]3C[C@@](C)(OC)[C@@H](O)[C@H](C)O3)[C@@H](C)C(=O)O[C@H](CC)[C@@](C)(O)[C@H](O)[C@@H](C)C(=O)[C@H](C)C[C@@]2(C)O)O[C@H](C)C[C@@H]1N(C)C
6. CC(C)c1nc(N(C)S(C)(=O)=O)nc(-c2ccc(F)cc2)c1/C=C/[C@@H](O)C[C@@H](O)CC(=O)O
7. CC(=O)Oc1cccc(C(=O)O)c1OC(C)=O
8. CC(=O)Oc1ccccc1C(=O)Oc1ccccc1C(=O)O

RESULT:
[1.19, 0.89, 1.11, 1.05, 1.38, 1.08, 1.05, 0.97]
